Assay: protein stability index of a GFP-peptide fusion (yeast GPS) (PSI 1-4); higher = more stable; sorted into four equal gates, so the index is relative within each strain
Settings: san1∆
measured.attribute: protein stability index

Look over these answered cases.
>  <macromolecule.sequence>
FAAKQRQELQMQRQQQG [SNF2]

>  <protein stability index>
2.71

$$$$
>  <macromolecule.sequence>
GTKSNEKKDSGSSKPAF [YJL041W/NSP1]

>  <protein stability index>
3.42

$$$$
>  <macromolecule.sequence>
TSLATSAGQPNLLLSAS [ASC1]

>  <protein stability index>
2.03

$$$$
>  <macromolecule.sequence>
HLIKCFFKITLQRASSK [ITC1]

>  <protein stability index>
1.18

$$$$
>  <macromolecule.sequence>
SLAWSADGQTLFAGYTD [ASC1]

>  <protein stability index>
2.7

$$$$

What does the data say about its protein stability index? Entry: LTSSKSVIVSQFCAFDS [SIN4]
1.98

Cool, now PKDPSNVETYEQILQWV [BRR2]
2.91

* * *

# maps each entry to its protein stability index
Test: protein stability index of a GFP-peptide fusion (yeast GPS) (PSI 1-4); higher = more stable; sorted into four equal gates, so the index is relative within each strain
Settings: san1∆
Answer using only a numeral; do not append any unit.

Look over these answered cases.
>  <macromolecule.sequence>
NELQEERLKVPILVTLV [POP6]

>  <protein stability index>
1.84

$$$$
>  <macromolecule.sequence>
SVPIWVDTSTELESMLE [RRP6]

>  <protein stability index>
3.06

$$$$

What does the data say about its protein stability index? Entry: FQFFPKELDALQEKEQL [ISW2]
3.04

Cool, now IDMGEDKENVPVEKVKE [DPB4]
3.29

* * *

# maps each entry to its protein stability index
Test: protein stability index of a GFP-peptide fusion (yeast GPS) (PSI 1-4); higher = more stable; sorted into four equal gates, so the index is relative within each strain
Details: pdr5∆
Answer using only a numeral; do not append any unit.

Look over these answered cases.
>  <macromolecule.sequence>
PKARQELPTQLALEIIV [RRP46]

>  <measured.attribute>
protein stability index

>  <reported.value>
1.76

$$$$
>  <macromolecule.sequence>
TSELGNDDFSEVFEFKT [BRR2]

>  <measured.attribute>
protein stability index

>  <reported.value>
3.08

$$$$
>  <macromolecule.sequence>
TSYKKWSFDLPEMSNLY [PRP8]

>  <measured.attribute>
protein stability index

>  <reported.value>
2.52

$$$$
>  <macromolecule.sequence>
DDNDVPGPLPDTDSKPS [YLR018C/POM34]

>  <measured.attribute>
protein stability index

>  <reported.value>
2.98

$$$$
>  <macromolecule.sequence>
MSNVVQARDNSQVFGVA [RPS14A]

>  <measured.attribute>
protein stability index

>  <reported.value>
2.11

$$$$

What does the data say about its protein stability index? Entry: STVAKNVSFVLPDEKSD [YCG1]
3.16

Cool, now SIVTVVSSAKFSGKYLK [RPL22B]
2.86

Cool, now RHFWGLRVRGQHTKTTG [RPS18A]
1.99

* * *

Experiment: protein stability index of a GFP-peptide fusion (yeast GPS) (PSI 1-4); higher = more stable; sorted into four equal gates, so the index is relative within each strain
Conditions: doa10∆
measured.attribute: protein stability index
Answer using only a numeral; do not append any unit.

What does the data say about its protein stability index? Entry: AFDIELSEFGIKKMLHL [YCS4]
3.11

Cool, now IGNLITRQFEGRSNEIV [PRP8]
3.05

* * *

Assay: protein stability index of a GFP-peptide fusion (yeast GPS) (PSI 1-4); higher = more stable; sorted into four equal gates, so the index is relative within each strain
Conditions: ubr1∆
Response key: MET means protein stability index >= 2; NOT MET means protein stability index < 2.

Past entries and their recorded results:
>  <macromolecule.sequence>
ERKTLERQQENLLIQRL [SWI3]

>  <class.name>
MET

$$$$
>  <macromolecule.sequence>
RAPQQSVLQLFQSVQLN [SMC2]

>  <class.name>
NOT MET

$$$$
>  <macromolecule.sequence>
TDLTNNSTDGAKITEIG [YIL149C/MLP2]

>  <class.name>
MET

$$$$
>  <macromolecule.sequence>
KQNPGLMQNMMNMFGGG [SRP54]

>  <class.name>
NOT MET

$$$$
>  <macromolecule.sequence>
SVSLLNSDIANLRTQVT [SMC1]

>  <class.name>
MET

$$$$

Has IPKPRTAGKTSVKSART [SNF2] a recorded protein stability index greater than or equal to 2?
MET

Cool, now CIPLVGISVPFHSTYLM [FAS1]
NOT MET

Cool, now KLSESLDTRKELWRKEQ [SMC3]
NOT MET

* * *

Assay: protein stability index of a GFP-peptide fusion (yeast GPS) (PSI 1-4); higher = more stable; sorted into four equal gates, so the index is relative within each strain
Conditions: ubr1∆
Response key: 1 (yes) means protein stability index >= 2; 0 (no) means protein stability index < 2.

Past entries and their recorded results:
>  <macromolecule.sequence>
GLIYSFNEENGEDSTKP [POP1]

>  <class.name>
1 (yes)

$$$$
>  <macromolecule.sequence>
LVKTKELIKNYITARIM [FAS1]

>  <class.name>
1 (yes)

$$$$
>  <macromolecule.sequence>
LGSQSKSDEGGSYLCTS [YOR098C/NUP1]

>  <class.name>
1 (yes)

$$$$
>  <macromolecule.sequence>
RHGSVVEASRRRRSSTN [MED1]

>  <class.name>
1 (yes)

$$$$
>  <macromolecule.sequence>
FLYVLIPAGIYWYWWKN [QCR8]

>  <class.name>
0 (no)

$$$$

Now for a further sequence.
Has ALRDVKNNNNANNNGSN [GAL11] a recorded protein stability index greater than or equal to 2?
1 (yes)

* * *

Experiment: protein stability index of a GFP-peptide fusion (yeast GPS) (PSI 1-4); higher = more stable; sorted into four equal gates, so the index is relative within each strain
Settings: doa10∆
# maps each entry to its protein stability index
Answer using only a numeral; do not append any unit.

Look over these answered cases.
>  <macromolecule.sequence>
DTNVVLQAIDLLENPNC [DIS3]

>  <reported.value>
2.84

$$$$
>  <macromolecule.sequence>
NLEQINEDLEDGHYIEE [REC8]

>  <reported.value>
2.93

$$$$
>  <macromolecule.sequence>
KMDMICRNINRKHRNAQ [DIS3]

>  <reported.value>
2.2

$$$$
>  <macromolecule.sequence>
ISVTDTEVERAKSLLKL [COR1]

>  <reported.value>
3.3

$$$$
>  <macromolecule.sequence>
RIMEKSVILSVISMFVL [YML031W/NDC1]

>  <reported.value>
1.31

$$$$
>  <macromolecule.sequence>
NNNNNNNNNNNNDDNGN [MED2]

>  <reported.value>
3.09

$$$$

What does the data say about its protein stability index? Entry: NLLTPQPTNFTTKRLWS [MCD1]
2.79

* * *

Assay: protein stability index of a GFP-peptide fusion (yeast GPS) (PSI 1-4); higher = more stable; sorted into four equal gates, so the index is relative within each strain
Details: doa10∆
measured.attribute: protein stability index
Answer using only a numeral; do not append any unit.

Look over these answered cases.
>  <macromolecule.sequence>
LKTNGKQNNKDFRTRYI [MTW1]

>  <protein stability index>
2.75

$$$$
>  <macromolecule.sequence>
ELSEEKYIVKASSGPRY [RPT4]

>  <protein stability index>
2.66

$$$$
>  <macromolecule.sequence>
SFIISSLDTLELESITE [NUT1]

>  <protein stability index>
1.74

$$$$
>  <macromolecule.sequence>
SFDSIDHSWFLLIGCKL [CSI1]

>  <protein stability index>
1.71

$$$$
>  <macromolecule.sequence>
KQGFVIYRVRVRRGNRK [RPL15A]

>  <protein stability index>
1.17

$$$$
>  <macromolecule.sequence>
LMKCCHEAYSIIEKITD [RRP45]

>  <protein stability index>
2.56

$$$$

Now consider a different sequence.
What does the data say about its protein stability index? Entry: ETYGSMEMSEKIQFILE [RPN5]
2.41

* * *

Assay: protein stability index of a GFP-peptide fusion (yeast GPS) (PSI 1-4); higher = more stable; sorted into four equal gates, so the index is relative within each strain
Conditions: doa10∆
Response key: label 1 means protein stability index >= 3; label 0 means protein stability index < 3.

Past entries and their recorded results:
>  <macromolecule.sequence>
TNDGIERYSDKYLKKRK [RPC31]

>  <class.name>
label 1

$$$$
>  <macromolecule.sequence>
HKQIHTTIFVKSTTPYV [POP7]

>  <class.name>
label 0

$$$$

Has PKNQQYRAFGSIWQVKD [MED7] a recorded protein stability index greater than or equal to 3?
label 0

Cool, now DLENSPLKTELEANGRS [SSN2]
label 1

Cool, now QEQLKNVKNDVSFNDSQ [YIL149C/MLP2]
label 1

Cool, now LNRSHFATTKAECISLI [ECM29]
label 0

Cool, now MKYIQTEQQIEIPEGVT [RPL9B]
label 0

Cool, now VFHAAFEGDSNMLICAP [BRR2]
label 0

Cool, now LRWFELKPKLYYEQFRP [SIR3]
label 1

Cool, now KLKDSKKLFQKKENLTR [YML103C/NUP188]
label 0

Cool, now ELKDICSFAVTKSSLND [YML103C/NUP188]
label 0

Cool, now SRRWRQRKNIQSLELMI [BRR2]
label 0

Cool, now ARQFGYVILTTSAGIMD [RPS22A]
label 0
